test.system: AgAbp1
test: SPOT peptide array binding signal intensity (averaged, normalized) (arbitrary units (background-subtracted, floor 0; scale differs between SH3 domains)); higher = stronger binding of the SH3 domain to the peptide
readout.type: SPOT peptide array binding signal intensity
Give bare numbers.

binder | recorded.value
RLPAPPPPPRRGPAP | 51.5
KNRKNLPTIPIRLSG | 4080
RNNRPVPPPPPMRTT | 9
ALKQKKIPPPFKPHL | 43.5

# map each binder to its SPOT peptide array binding signal intensity
1. HRRRRVFSIPSLKSI
2. KFIPSRPAPKPPSSA

Result:
1: 65.5; 2: 1640
